Target or system: T1, APC9291-AA
T1 chain: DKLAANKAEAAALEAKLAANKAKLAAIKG
Assay info: two-hybrid library CCmax;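 further: natural log of median RNA to DNA barcode read ratio; higher means stronger binding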
Condition set: mean of both orientations
Value kind: interaction score

{"Binder": "DKLAANKAKLAAIKAELAANEAEAAALEG [APC9182-AA]", "Value reported": -1.98}
{"Binder": "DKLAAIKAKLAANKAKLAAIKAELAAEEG [APC1916-AA]", "Value reported": -2.08}
{"Binder": "DELAAIEAKNAALKAENAALEAEAAALEG [APC542-AA]", "Value reported": -1.54}
